Test system: C. lagenarium
Experiment: Spore germination assay, fungicidal activity against C. lagenarium
Type: cell-based, Colletotrichum lagenarium
Details: Colletotrichum orbiculare; Table 2; fungicidal activity against C. lagenarium used for QSAR; read-out: pIC50 (converted)
Threshold 200 µM. IC50 below it: 1 (yes). IC50 at it or above: 0 (no).

Reference set, count: 3
COMPOUND: C=C1CC(c2cccc(OC(=O)c3ccc(C)cc3)c2)OC1=O (stereo not drawn)
QUALITATIVE_LABEL: 1 (yes)
--
COMPOUND: C=C1CC(c2ccccc2OC(=O)c2ccc(C)cc2)OC1=O (stereo not drawn)
QUALITATIVE_LABEL: 0 (no)
--
COMPOUND: C=C1CC(c2ccccc2OCCCC)OC1=O (stereo not drawn)
QUALITATIVE_LABEL: 0 (no)

For this compound, is IC50 lower than 200 µM? C=C1CC(c2cccc(OC(=O)C=Cc3ccccc3)c2)OC1=O (stereo not drawn)
1 (yes)
